Data provenance is ChEMBL document CHEMBL4184141.

A collection of molecules and their measured MBC
system: Staphylococcus aureus; assay: Bactericidal activity against Staphylococcus aureus RN4220 up to 18 hrs by broth microdilution assay; assay type: functional; details: RN4220, 18 h, read-out: MBC99.9
The reply should contain only the number, in µg/mL.

Completed entries (count: 4):
1) CN[C@H](CC(C)C)C(=O)N[C@H]1C(=O)N[C@@H](CC(N)=O)C(=O)N[C@H]2C(=O)N[C@H]3C(=O)N[C@H](C(=O)N[C@H](C(=O)O)c4cc(O)cc(O)c4-c4cc3ccc4O)[C@H](O)c3ccc(c(Cl)c3)Oc3cc2cc(c3O[C@@H]2O[C@H](CO)[C@@H](O)[C@H](O)[C@H]2O[C@H]2C[C@](C)(N)[C@H](O)[C@H](C)O2)Oc2ccc(cc2Cl)[C@H]1O [VANCOMYCIN]	1
2) CNC(=N)Nc1nccc(-c2sc(-c3ccc(-c4ccccc4)cc3)nc2C)n1	32
3) Cc1nc(-c2ccc(-c3ccccc3)cc2)sc1-c1ccnc(NC(=N)N2CCN(C)CC2)n1	8
4) Cc1nc(-c2ccc(-c3ccccc3)cc2)sc1-c1ccnc(NN2CCN(C)CC2)n1	8

Please find the next molecule below.
// query I'd like to know its MBC. The molecule in question is Cc1nc(-c2ccc(-c3ccccc3)cc2)sc1-c1ccnc(NC(=N)N2CCOCC2)n1
// result 32
